Target: Disintegrin and metalloproteinase domain-containing protein 17 (Homo sapiens, UniProt P78536)
Sequence (P78536 whole entry, the tested form may be a part): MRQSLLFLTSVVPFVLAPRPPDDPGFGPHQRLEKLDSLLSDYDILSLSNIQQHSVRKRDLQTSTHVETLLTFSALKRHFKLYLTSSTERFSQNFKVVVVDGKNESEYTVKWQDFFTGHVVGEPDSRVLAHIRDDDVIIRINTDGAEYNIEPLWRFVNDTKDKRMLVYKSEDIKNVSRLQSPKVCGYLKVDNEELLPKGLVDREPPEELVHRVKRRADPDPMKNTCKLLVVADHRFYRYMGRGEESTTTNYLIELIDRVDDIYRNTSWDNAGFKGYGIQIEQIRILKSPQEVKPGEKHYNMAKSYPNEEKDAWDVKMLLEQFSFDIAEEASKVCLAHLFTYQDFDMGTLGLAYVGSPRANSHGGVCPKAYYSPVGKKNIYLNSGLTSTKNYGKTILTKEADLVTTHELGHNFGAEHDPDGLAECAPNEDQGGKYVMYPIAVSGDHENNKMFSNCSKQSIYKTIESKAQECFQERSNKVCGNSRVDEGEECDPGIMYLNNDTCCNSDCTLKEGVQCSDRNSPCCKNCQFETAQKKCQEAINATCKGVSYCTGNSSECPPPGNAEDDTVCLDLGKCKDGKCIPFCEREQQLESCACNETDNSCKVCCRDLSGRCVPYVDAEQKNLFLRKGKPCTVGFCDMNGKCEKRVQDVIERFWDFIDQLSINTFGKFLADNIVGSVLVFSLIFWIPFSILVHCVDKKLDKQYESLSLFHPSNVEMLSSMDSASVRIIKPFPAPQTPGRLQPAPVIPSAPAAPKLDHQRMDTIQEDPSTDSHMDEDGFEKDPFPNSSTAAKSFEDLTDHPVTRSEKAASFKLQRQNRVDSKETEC
Assay: Inhibitory activity against TACE
Labelling: IC50 reported below 0.1 µM becomes label 1; at or above becomes label 0.

| Molecule | Class assignment |
| --- | --- |
| Cc1cc(COc2ccc(CN3C(C(=O)NO)CCS3(=O)=O)cc2)c2ccccc2n1 (configuration not stated) | label 0 |
| Cc1cc(COc2ccc(N3C(C(=O)NO)CNS3(=O)=O)cc2)c2ccccc2n1 (configuration not stated) | label 1 |
| Cc1cc(COc2ccc(N3C(C(=O)NO)CCCS3(=O)=O)cc2)c2ccccc2n1 (configuration not stated) | label 1 |
| Cc1cc(COc2ccc(CCN3C(C(=O)NO)CCS3(=O)=O)cc2)c2ccccc2n1 (configuration not stated) | label 0 |
| COc1ccc(-c2ccc(CN3C(C(=O)NO)CCS3(=O)=O)cc2)cc1 (configuration not stated) | label 0 |
| Cc1cc(COc2ccc(CC3C(C(=O)NO)CCS3(=O)=O)cc2)c2ccccc2n1 (configuration not stated) | label 0 |
| Cc1cc(COc2ccc(N3C(C(=O)NO)CCS3(=O)=O)cc2)c2ccccc2n1 (configuration not stated) | label 1 |
